- experimental-target: Human ST2-fc (human) (UniProt Q01638)
- test-protocol: competition ELISA, coated ST2-fc, competitor IL33-his
Measured Maximum inhibition rate by item
Answer format: numeric, % implied, no suffix.

>>> reading("5888-116-H1L1 (antibody, human IgG4 S228P, kappa, V domains shown) VH: QVQLVQSGAEVKKPGASVKVSCKASGYTFTDSEMYWVRQAPGQGLEWMGAIDPETGDTAFNQKFKGRVTMTADKSTSTAYMELSSLRSEDTAVYYCTRAFDNDNDDGFAYWGQGTMVTVSS VL: DIQMTQSPSSLSASVGDRVTITCSASSSVNYMHWYQQKPGKAPKRLIYDTSKLASGVPSRFSGSGSGTDYTFTISSLQPEDAATYYCQQWSSNPLTFGQGTKLEIKR")
94.9

Prompt: Identify measured Maximum inhibition rate associated with 5886-156-H1L1 (antibody, human IgG4 S228P, kappa, V domains shown, Humanized antibody) VH: QVQLQESGPGLVKPSQTLSLTCTVSGYSITSDYAWNWIRQPPGKGLEWIGYIDYSGSTTYNPSLKSRVTISRDTSKNQFSLKLSSVTAADTAVYYCASTVIDSMDYWGQGTLVTVSS VL: DIVLTQSPASLAVSPGQRATITCRASKSVSTSGHSYMHWYQQKPGQPPKLLIYLASNLESGVPARFSGSGSGTDFTLTINPVEANDAANYYCQHSREFPFTFGQGTKVEIKR
Response: 88
